- Tested on: Bifunctional 3'-5' exonuclease/ATP-dependent helicase WRN (Homo sapiens)
- Measurement description: qHTS for Inhibitors of WRN Helicase; further: nearly all actives have a fitted effect of over 55% in size
- Condition context: WRN helicase unwinding, fluorescent forked duplex, kinetic; series mostly up to 114 µM
Screen size: about 360,000 compounds; about 1,700 (0.47%) were called active. About 2% were inconclusive and are not listed. The call rests on the fitted dose curve; in most records, active means well fitted inhibition curve with a large enough effect; inconclusive means small, poorly fitted or top-dose-only effect; inactive means no such curve, though single readings can be large or run the other way. For the sample, actives were picked, then their nearest neighbours and some compounds at random.
Labels: yes (active), no (inactive)

| Compound | Cat |
| --- | --- |
| O=C(NC1=CC(=O)c2ccccc2C1=O)c1ccccc1 | no |
| COc1ccc(OC)c(NC(=O)C2(C)CCN2C(=O)Cc2ccccc2)c1 (configuration not stated) | no |
| Cc1ccc(S(=O)(=O)N(c2cccc(C)c2)C2CCS(=O)(=O)C2)cc1 (configuration not stated) | no |
| COc1ccccc1C(CNC(=O)c1cccc(NS(=O)(=O)c2ccc(Br)cc2)c1)N(C)C (configuration not stated) | no |
| CC1CN(C(=O)c2ccccc2NS(=O)(=O)c2cccc([N+](=O)[O-])c2)CC(C)O1 (configuration not stated) | no |
| O=C(NC1CCCCC1)C(c1cc2ccccc2o1)n1c(=O)c(-c2ccco2)nc2ccccc21 (configuration not stated) | no |
| NCCN1CCN2C(=O)CN(C(=O)c3ccccc3)CC12 (configuration not stated) | no |
| O=C(CSC(=S)N1CCOCC1)c1ccccc1 | no |
| COC(=O)c1ccc(NCc2cc(O)ccc2O)cc1 | yes |
| O=C(O)CSC(NC(=O)c1cccnc1)(C(F)(F)F)C(F)(F)F | no |
| O=C(c1cc2cc(Br)cc(Br)c2oc1=O)N1CCOCC1 | no |
| CC(=O)N(C1=C(Cl)C(=O)c2ccccc2C1=O)c1ccc(C(=O)O)cc1 | yes |
| O=C(CSC(=S)N1CCOCC1)c1cc(Br)cc(Br)c1O | yes |
| O=C1Nc2ccccc2-n2nnnc2C1N1CCN(c2cccc(C(F)(F)F)n2)CC1 (configuration not stated) | no |
| CCc1noc(C)c1C(=O)Oc1ccc(N(C)S(=O)(=O)c2ccc(C)c(C)c2)cc1 | no |
| CCOC(=O)c1cc(-c2ccc(F)cc2)n(CC(=O)NCc2ccccn2)c1C | no |
| CN(Cc1c(F)cccc1Cl)S(=O)(=O)c1cccs1 | no |
| CCc1ccc(N(CC(=O)NCc2cccnc2)S(=O)(=O)c2ccccc2)cc1 | no |
| O=C(COc1ccccc1Cl)Nn1cnnc1 | no |
| CN1CCN(C(=O)c2ccc(-c3cc4nc(NCc5cccnc5)n(C)c(=O)c4s3)cc2)CC1 | no |
| COc1ccc(S(=O)(=O)N2CCC(C(=O)OCC(=O)c3ccccc3)CC2)cc1[N+](=O)[O-] | no |
| CC(C)OC(=O)c1ccc(NCc2cc(O)ccc2O)cc1Cl | no |

----------
- Tested on: Bifunctional 3'-5' exonuclease/ATP-dependent helicase WRN (Homo sapiens)
- Measurement description: qHTS for Inhibitors of WRN Helicase; further: nearly all actives have a fitted effect of over 55% in size
- Condition context: WRN helicase unwinding, fluorescent forked duplex, kinetic; series mostly up to 114 µM
Among all 360,000 compounds or so, about 1,700 (0.47%) were called active. Another 2% or so got no clear call; they are omitted. Calls follow the shape of the dose curve; as a rule, active = well fitted inhibition curve with a large enough effect; inconclusive = small, poorly fitted or top-dose-only effect; inactive = no such curve, though single readings can be large or run the other way. Shown is part of a subset that was picked to be rich in actives.
Labels: active, inactive

| Compound | Tested on | Cat |
| --- | --- | --- |
| Cc1c(NC(=O)COC(=O)/C=C/c2cccc(F)c2)c(=O)n(-c2ccccc2)n1C | Bifunctional 3'-5' exonuclease/ATP-dependent helicase WRN (Homo sapiens) | inactive |
| CCOc1ncccc1C(=O)NNC(=O)c1cccc(S(=O)(=O)Nc2ccccc2OC)c1 | Bifunctional 3'-5' exonuclease/ATP-dependent helicase WRN (Homo sapiens) | inactive |
| CN(C)c1nc(Nc2ccc(Cl)c(Cl)c2)nc(N(C)C)n1 | Bifunctional 3'-5' exonuclease/ATP-dependent helicase WRN (Homo sapiens) | active |
| COc1cccc(/C=N/Nc2ccc(S(=O)(=O)Nc3ccccc3C(=O)O)cc2[N+](=O)[O-])c1O | Bifunctional 3'-5' exonuclease/ATP-dependent helicase WRN (Homo sapiens) | active |
| CC(=O)Nc1cccc(-c2cc3nc(NCc4cccnc4)n(C)c(=O)c3s2)c1 | Bifunctional 3'-5' exonuclease/ATP-dependent helicase WRN (Homo sapiens) | inactive |
| O=C1CSC(=S)N1/N=C/c1ccc(O)c([N+](=O)[O-])c1 | Bifunctional 3'-5' exonuclease/ATP-dependent helicase WRN (Homo sapiens) | active |
| C#CCN1C(=O)C(O)(CC(=O)c2cc(OC)ccc2OC)c2ccccc21 (stereo unspecified) | Bifunctional 3'-5' exonuclease/ATP-dependent helicase WRN (Homo sapiens) | inactive |
| Cc1cc(Cl)ccc1C(=O)C1CCCN(C(=O)c2nonc2C)C1 (stereo unspecified) | Bifunctional 3'-5' exonuclease/ATP-dependent helicase WRN (Homo sapiens) | inactive |
| CO/N=C/c1ccc(N2CCN(C(=O)c3cccc(Cl)c3)CC2)c([N+](=O)[O-])c1 | Bifunctional 3'-5' exonuclease/ATP-dependent helicase WRN (Homo sapiens) | inactive |
| CCOc1ccc(CCN2C(=O)C(=O)N([C@@H](CC(C)C)CN3CCC[C@H]3CN3C(=O)C(=O)NC[C@@H]3Cc3ccccc3)C[C@@H]2CC(C)C)cc1 | Bifunctional 3'-5' exonuclease/ATP-dependent helicase WRN (Homo sapiens) | inactive |
| COc1ccc2c(c1)C(=C(C#N)C#N)C(=O)N2CCc1ccccc1 | Bifunctional 3'-5' exonuclease/ATP-dependent helicase WRN (Homo sapiens) | active |
| COc1cc(/C=C/C(=O)OCC(=O)NC(=O)NCc2ccccc2)ccc1OCC#N | Bifunctional 3'-5' exonuclease/ATP-dependent helicase WRN (Homo sapiens) | inactive |
| CCCCn1c(SCc2ncc(-c3ccccc3)o2)nc2cc(S(N)(=O)=O)ccc21 | Bifunctional 3'-5' exonuclease/ATP-dependent helicase WRN (Homo sapiens) | inactive |
| CN(C)c1nc(NN)nc(Nc2ccc(F)cc2)n1 | Bifunctional 3'-5' exonuclease/ATP-dependent helicase WRN (Homo sapiens) | inactive |
| O=C(COC(=O)c1cnccn1)Nc1ccc(Cl)cc1C(F)(F)F | Bifunctional 3'-5' exonuclease/ATP-dependent helicase WRN (Homo sapiens) | inactive |
| O=S(=O)(O)c1cc2onnc2c2ccccc12 | Bifunctional 3'-5' exonuclease/ATP-dependent helicase WRN (Homo sapiens) | active |
| COc1ccc(N(CC(=O)NCCSCc2cccc(Cl)c2)S(C)(=O)=O)cc1 | Bifunctional 3'-5' exonuclease/ATP-dependent helicase WRN (Homo sapiens) | inactive |
| COC(=O)c1ccc(COc2ccc(/C=C/C(=O)c3ccc(OC)c(CSCC(=O)O)c3)cc2OC)cc1 | Bifunctional 3'-5' exonuclease/ATP-dependent helicase WRN (Homo sapiens) | active |
| CN(C)c1ccc(CSc2ccccc2)cc1 | Bifunctional 3'-5' exonuclease/ATP-dependent helicase WRN (Homo sapiens) | inactive |
| CC(=O)CSc1nc(CCc2ccccc2)c(C#N)c(=O)[nH]1 | Bifunctional 3'-5' exonuclease/ATP-dependent helicase WRN (Homo sapiens) | inactive |
| CCN(CC)CC(=O)Nc1sc2c(c1C(=O)c1ccccc1C)CCC2 | Bifunctional 3'-5' exonuclease/ATP-dependent helicase WRN (Homo sapiens) | inactive |

----------
- Tested on: Bifunctional 3'-5' exonuclease/ATP-dependent helicase WRN (Homo sapiens) (UniProt Q14191)
- Sequence (Q14191 whole entry, looked up): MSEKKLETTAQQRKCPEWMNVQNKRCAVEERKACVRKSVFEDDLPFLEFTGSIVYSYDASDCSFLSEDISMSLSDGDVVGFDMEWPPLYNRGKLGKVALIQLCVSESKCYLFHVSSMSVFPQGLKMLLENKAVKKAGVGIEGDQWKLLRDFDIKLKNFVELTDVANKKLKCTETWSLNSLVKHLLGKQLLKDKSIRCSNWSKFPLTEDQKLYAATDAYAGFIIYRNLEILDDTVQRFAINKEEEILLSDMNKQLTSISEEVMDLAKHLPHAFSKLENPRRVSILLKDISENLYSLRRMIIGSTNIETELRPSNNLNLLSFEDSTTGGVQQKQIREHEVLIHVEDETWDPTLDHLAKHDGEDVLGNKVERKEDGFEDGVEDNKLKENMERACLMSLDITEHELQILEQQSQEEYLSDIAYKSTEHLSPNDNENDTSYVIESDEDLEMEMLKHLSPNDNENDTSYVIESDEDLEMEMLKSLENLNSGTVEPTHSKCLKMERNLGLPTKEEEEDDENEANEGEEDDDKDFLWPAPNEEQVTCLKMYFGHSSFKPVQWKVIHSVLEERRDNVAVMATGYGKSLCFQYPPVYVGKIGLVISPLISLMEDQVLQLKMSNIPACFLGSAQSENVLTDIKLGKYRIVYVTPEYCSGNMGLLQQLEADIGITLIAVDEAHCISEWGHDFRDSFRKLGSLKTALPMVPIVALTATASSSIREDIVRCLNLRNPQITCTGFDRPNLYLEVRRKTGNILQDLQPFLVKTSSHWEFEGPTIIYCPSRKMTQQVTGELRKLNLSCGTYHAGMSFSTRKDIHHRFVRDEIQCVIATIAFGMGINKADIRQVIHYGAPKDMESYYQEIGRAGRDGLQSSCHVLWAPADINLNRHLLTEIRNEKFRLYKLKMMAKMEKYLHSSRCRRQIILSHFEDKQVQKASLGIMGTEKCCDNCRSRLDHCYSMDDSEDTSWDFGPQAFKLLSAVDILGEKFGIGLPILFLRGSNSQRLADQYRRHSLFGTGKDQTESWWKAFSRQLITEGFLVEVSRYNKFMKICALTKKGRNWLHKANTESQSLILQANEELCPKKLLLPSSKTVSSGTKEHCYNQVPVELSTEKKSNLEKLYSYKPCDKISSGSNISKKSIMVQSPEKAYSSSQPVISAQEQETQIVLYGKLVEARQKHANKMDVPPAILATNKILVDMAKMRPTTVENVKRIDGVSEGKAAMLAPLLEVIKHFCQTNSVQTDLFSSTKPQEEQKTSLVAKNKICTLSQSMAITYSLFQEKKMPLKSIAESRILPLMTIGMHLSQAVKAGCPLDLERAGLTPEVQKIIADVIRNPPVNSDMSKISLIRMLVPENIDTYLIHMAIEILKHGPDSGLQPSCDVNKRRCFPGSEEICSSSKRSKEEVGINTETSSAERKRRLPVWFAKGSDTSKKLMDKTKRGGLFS
- Measurement description: qHTS for Inhibitors of WRN Helicase; further: nearly all actives have a fitted effect of over 55% in size; further: potency means the concentration at half of the fitted maximal effect
- Condition context: WRN helicase unwinding, fluorescent forked duplex, kinetic; series mostly up to 114 µM
In all, about 360,000 compounds went through this assay and about 1,700 (0.47%) were called active. Inconclusive results (about 2%) are left out. The sample holds actives, similar compounds and a random draw of the others, so the mix is not that of the screen.
Measurement label: Potency

| Compound | Observed measurement |
| --- | --- |
| COc1ccc(CNC(=O)/C(C#N)=C/c2cccc(OC)c2OC)cc1 | inactive |
| CSc1c(SCc2ccccc2)cnn(Cc2ccccc2)c1=O | inactive |
| COc1cc(O)c2c(=O)c3c(O)c(O)ccc3oc2c1OC | inactive |
| COc1ccc(C(C)=O)cc1COC(=O)Cn1cnc2ccccc2c1=O | inactive |
| Cc1ccc(CCC(=O)Nc2ncc(Cc3cc(Cl)ccc3Cl)s2)o1 | inactive |
| COc1ccc(Cl)cc1NC(=O)CCS(=O)(=O)c1ccc(Br)cc1 | 44.7 µM (active) |
| Clc1ccccc1CSc1nnc(-c2ccco2)c(-c2ccco2)n1 | 50.1 µM (active) |
| CC(=O)Nc1cncc(-c2ccccc2CO)n1 | inactive |
| C#CCOCCOCCOCCNc1nc(N2CCN(C(=O)CCCCCCCCCCNC(=O)Cn3cc(CCCCCN)nn3)CC2)nc(N2CCN(C(=O)CCCCCCCCCCNC(=O)[C@H](CO)n3cc(CCCSC)nn3)CC2)n1 | 31.6 µM (active) |
| C=CCN(N=Nc1cccc([N+](=O)[O-])c1)c1cccc([N+](=O)[O-])c1 | inactive |
| CCC1(c2ccccc2)NC(=O)N(CC(=O)c2ccc3c(c2)OCO3)C1=O (stereo not given) | inactive |
| O=c1[nH]c2ccccc2n2c(-c3ccccc3)nnc12 | 20 µM (active) |
| CCOC(=O)N1CCC(NC(=O)CN2C(=O)COc3ccc(C(C)(C)C)cc32)CC1 | inactive |
| Cc1ccc(NC(=O)OCCNC(=O)c2ccncc2)cc1 | inactive |
| O=C(c1ncn2c1c(=O)[nH]c1ccccc12)N1CCc2ccccc2C1 | inactive |
| CCOC(=O)COc1cc(OCC(=O)OCC)c2c(=O)cc(-c3ccccc3)oc2c1 | inactive |
| CCC(=O)Nc1c(C)n[nH]c1C | inactive |
| NC(=O)CSC1=Nc2ccccc2C2=NC(CCC(=O)NCc3ccc(F)cc3)C(=O)N12 (stereo not given) | inactive |
| CC(C)c1ccc2c(c1)c(SC(C)(C)C)c(CC(C)(C)C(=O)O)n2Cc1ccc(Cl)cc1 | 50.1 µM (active) |
| O=C(Nc1nnc(SCc2ccccc2Cl)s1)c1cccc([N+](=O)[O-])c1 | inactive |
